This collection of values is drawn from patent US7432353B2.

ASSAY TARGET: E. coli RBP (ribose binding protein) fusion protein CrbsBY-ND (Asn-Asp between ECFP and RBP), SEQ ID NO: 38 (Escherichia coli)
Sequence (P02925 other isoform, or with tags, fused parts or gaps): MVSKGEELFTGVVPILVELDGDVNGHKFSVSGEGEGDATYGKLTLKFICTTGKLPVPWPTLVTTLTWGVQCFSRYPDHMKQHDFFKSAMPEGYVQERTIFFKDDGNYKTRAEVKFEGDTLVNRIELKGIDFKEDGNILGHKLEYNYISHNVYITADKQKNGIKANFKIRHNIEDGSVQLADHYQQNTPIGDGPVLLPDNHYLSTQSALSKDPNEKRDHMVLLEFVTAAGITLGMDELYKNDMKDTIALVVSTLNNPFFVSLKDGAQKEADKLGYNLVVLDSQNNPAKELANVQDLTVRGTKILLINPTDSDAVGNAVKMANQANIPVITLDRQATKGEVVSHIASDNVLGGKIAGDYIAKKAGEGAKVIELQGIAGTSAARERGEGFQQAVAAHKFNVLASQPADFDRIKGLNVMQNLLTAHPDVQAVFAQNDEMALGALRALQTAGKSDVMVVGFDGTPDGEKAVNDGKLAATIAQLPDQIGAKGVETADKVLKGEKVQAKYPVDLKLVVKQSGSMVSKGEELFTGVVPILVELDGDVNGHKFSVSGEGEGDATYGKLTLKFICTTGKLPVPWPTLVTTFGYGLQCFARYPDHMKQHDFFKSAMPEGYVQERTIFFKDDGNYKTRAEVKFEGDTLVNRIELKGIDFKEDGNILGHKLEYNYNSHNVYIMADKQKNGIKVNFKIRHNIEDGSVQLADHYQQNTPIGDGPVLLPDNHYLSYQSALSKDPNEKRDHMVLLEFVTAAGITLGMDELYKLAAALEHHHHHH
ASSAY NOTES: Ribose titration and sugar specificity of FRET sensor CrbsBY-ND
RUN PARAMETERS: ribose; 50% saturation
OBSERVED PROPERTY: Kd (µM)
# value in µM; strip the unit string

In: Param item = OC1OC[C@@H](O)[C@@H](O)[C@H]1O (stereo partly shown) ; retrieve measured Kd.
Out: 0.17
